measurementNotes: 4-cycle repeat oral dose toxicology study (5 days on/2 days off)
Format: in vivo, dog
appliedConditions: plasma, po, 10 mg/kg/day; at MTD/HNSTD, dog, female
property: Cmax (ng/mL)

1) CCOC(=O)C1=C(NN2CCN(CC(F)(F)F)CC2)O/C(=C\c2c[nH]c3ncccc23)C1=O :: 576

----------
measuredTarget: OAT3 (Homo sapiens)
Sequence (Q8TCC7 whole entry): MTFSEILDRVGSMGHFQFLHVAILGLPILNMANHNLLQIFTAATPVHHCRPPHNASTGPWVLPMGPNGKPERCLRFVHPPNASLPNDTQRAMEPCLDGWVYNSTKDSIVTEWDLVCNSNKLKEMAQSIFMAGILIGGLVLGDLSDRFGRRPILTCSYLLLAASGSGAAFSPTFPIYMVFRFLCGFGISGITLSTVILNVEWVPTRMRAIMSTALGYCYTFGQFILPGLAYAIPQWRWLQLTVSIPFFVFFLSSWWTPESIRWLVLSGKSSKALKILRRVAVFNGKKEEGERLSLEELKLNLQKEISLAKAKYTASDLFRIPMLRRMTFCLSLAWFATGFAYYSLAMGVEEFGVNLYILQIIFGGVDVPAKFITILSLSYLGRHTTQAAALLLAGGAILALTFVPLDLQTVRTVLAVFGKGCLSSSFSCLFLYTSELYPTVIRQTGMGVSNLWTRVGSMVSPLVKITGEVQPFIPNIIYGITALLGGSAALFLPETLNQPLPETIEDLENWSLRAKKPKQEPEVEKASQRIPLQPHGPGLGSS
measurementNotes: In vitro transporter inhibition
Format: in vitro ADME
property: inhibition at 10 µM

1) CCOC(=O)C1=C(NN2CCN(CC(F)(F)F)CC2)O/C(=C\c2c[nH]c3ncccc23)C1=O :: > 50%

----------
measuredTarget: Cdc7 (Homo sapiens)
Sequence (O00311 whole entry): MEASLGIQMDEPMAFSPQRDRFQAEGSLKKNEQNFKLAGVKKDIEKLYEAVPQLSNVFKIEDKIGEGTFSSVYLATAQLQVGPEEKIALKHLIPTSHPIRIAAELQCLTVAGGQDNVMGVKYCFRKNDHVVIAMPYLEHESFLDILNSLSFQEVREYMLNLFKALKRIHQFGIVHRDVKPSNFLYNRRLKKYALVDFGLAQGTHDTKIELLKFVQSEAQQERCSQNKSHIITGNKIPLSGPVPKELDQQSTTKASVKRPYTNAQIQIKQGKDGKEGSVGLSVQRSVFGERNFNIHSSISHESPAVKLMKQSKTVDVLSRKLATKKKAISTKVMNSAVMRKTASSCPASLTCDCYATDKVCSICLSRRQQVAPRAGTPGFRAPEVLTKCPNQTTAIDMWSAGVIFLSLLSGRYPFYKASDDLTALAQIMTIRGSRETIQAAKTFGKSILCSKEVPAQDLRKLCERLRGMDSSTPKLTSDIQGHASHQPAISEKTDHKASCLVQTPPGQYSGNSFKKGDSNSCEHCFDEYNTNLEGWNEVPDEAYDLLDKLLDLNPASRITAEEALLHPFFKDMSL
Sequence (Q9UBU7 whole entry partner): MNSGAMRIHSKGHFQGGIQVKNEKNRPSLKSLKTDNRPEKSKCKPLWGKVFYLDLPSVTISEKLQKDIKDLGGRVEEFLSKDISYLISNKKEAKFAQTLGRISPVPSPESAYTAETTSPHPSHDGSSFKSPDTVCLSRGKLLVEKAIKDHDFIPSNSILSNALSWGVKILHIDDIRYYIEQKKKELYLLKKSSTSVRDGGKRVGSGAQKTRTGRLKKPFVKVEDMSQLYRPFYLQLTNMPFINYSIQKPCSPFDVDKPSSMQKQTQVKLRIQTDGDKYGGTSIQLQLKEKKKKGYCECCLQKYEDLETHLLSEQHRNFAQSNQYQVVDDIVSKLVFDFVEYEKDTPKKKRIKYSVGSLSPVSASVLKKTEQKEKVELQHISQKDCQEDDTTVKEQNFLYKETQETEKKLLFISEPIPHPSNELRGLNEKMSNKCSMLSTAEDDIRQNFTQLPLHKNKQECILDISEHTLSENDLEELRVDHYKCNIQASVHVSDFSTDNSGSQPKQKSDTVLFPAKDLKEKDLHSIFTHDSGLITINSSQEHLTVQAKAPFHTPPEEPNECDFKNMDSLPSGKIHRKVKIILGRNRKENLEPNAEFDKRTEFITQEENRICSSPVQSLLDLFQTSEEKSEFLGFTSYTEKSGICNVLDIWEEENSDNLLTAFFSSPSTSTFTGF
measurementNotes: In vitro biochemical kinase assay
appliedConditions: pre-incubation with Cdc7 enzyme for 1 hour
pIC50: −log10 of the molar value.
property: pIC50

1) CCOC(=O)C1=C(NN2CCN(CC(F)(F)F)CC2)O/C(=C\c2c[nH]c3ncccc23)C1=O [SRA141] :: 8.85
